Cited source for all entries: ChEMBL document CHEMBL3399966

target: Hepatocyte growth factor receptor (Homo sapiens); experiment: Inhibition of MET (unknown origin)
Sequence (P08581 whole entry): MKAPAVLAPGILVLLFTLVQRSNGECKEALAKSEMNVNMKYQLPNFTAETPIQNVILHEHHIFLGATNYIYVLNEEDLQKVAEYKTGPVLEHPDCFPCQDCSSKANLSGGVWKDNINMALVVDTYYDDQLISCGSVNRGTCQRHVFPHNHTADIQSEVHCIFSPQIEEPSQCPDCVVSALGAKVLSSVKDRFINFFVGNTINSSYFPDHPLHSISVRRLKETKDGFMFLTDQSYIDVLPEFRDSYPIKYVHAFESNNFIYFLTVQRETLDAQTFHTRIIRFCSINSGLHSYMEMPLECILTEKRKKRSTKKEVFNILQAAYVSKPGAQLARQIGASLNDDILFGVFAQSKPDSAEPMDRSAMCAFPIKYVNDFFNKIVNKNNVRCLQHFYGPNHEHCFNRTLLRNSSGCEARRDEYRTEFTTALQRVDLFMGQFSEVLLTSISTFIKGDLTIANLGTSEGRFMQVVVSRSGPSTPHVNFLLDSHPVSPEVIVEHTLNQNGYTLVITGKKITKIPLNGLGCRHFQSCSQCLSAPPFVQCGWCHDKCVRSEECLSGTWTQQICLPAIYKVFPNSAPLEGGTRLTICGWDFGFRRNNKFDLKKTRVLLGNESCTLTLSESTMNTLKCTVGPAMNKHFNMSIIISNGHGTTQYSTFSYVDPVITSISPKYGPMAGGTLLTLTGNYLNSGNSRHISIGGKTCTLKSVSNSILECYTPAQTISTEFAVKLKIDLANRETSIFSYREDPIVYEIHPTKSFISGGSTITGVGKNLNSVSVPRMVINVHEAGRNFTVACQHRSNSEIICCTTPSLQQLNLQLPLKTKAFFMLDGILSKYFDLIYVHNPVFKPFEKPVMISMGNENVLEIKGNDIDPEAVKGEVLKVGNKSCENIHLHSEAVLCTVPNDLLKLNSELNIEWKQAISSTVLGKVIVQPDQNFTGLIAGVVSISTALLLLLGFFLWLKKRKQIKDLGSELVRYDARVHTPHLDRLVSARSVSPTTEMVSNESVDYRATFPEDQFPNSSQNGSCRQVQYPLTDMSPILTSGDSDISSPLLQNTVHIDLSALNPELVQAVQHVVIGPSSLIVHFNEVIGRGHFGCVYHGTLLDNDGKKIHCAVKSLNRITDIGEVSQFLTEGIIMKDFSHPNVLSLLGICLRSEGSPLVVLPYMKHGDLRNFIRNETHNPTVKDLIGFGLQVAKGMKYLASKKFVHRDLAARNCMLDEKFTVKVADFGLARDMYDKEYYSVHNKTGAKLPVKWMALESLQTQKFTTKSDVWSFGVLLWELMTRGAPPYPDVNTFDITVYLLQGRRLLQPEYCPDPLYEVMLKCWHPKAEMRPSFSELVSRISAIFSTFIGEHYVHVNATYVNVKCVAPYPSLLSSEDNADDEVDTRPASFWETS
Reported Ki by item:

| compound | assay-value |
| --- | --- |
| CNC(=O)[C@H]1C2CCC(CC2)[C@@H]1Nc1nc(-c2c[nH]c3ncc(F)cc23)ncc1F (mixture of isomers) | > 4 µM |
| O=P(O)(O)[C@H]1C2CCC(CC2)[C@@H]1Nc1nc(-c2c[nH]c3ncc(F)cc23)ncc1F (mixture of isomers) | > 4 µM |
| O=c1[nH]c(=O)n(C[C@H]2C3CCC(CC3)[C@@H]2Nc2nc(-c3c[nH]c4ncc(F)cc34)ncc2F)o1 (mixture of isomers) | > 4 µM |
| Fc1cnc2[nH]cc(-c3ncc(F)c(N[C@H]4C5CCC(CC5)[C@@H]4c4nnn[nH]4)n3)c2c1 (mixture of isomers) | > 4 µM |
| Cc1nnc([C@H]2C3CCC(CC3)[C@@H]2Nc2nc(-c3c[nH]c4ncc(F)cc34)ncc2F)o1 (mixture of isomers) | > 4 µM |
| Cc1noc([C@H]2C3CCC(CC3)[C@@H]2Nc2nc(-c3c[nH]c4ncc(F)cc34)ncc2F)n1 (mixture of isomers) | > 4 µM |

Then this compound:
Ask: Requested field: Ki. Item: CS(=O)(=O)[C@H]1C2CCC(CC2)[C@@H]1Nc1nc(-c2c[nH]c3ncc(F)cc23)ncc1F (mixture of isomers)
Reply: > 4 µM

----------
target: Rho-associated protein kinase (Homo sapiens, UniProt O75116+Q13464); test: Inhibition of ROCK (unknown origin); format: protein-complex assay
recorded-metric: Ki

Before answering, review these 5 worked examples.
| compound | recorded-metric | assay-value |
| --- | --- | --- |
| Cc1nnc([C@H]2C3CCC(CC3)[C@@H]2Nc2nc(-c3c[nH]c4ncc(F)cc34)ncc2F)o1 (mixture of isomers) | Ki | > 4 µM |
| O=P(O)(O)CC[C@H]1C2CCC(CC2)[C@@H]1Nc1nc(-c2c[nH]c3ncc(F)cc23)ncc1F (mixture of isomers) | Ki | 0.25 µM |
| CC(=O)NS(=O)(=O)[C@H]1C2CCC(CC2)[C@@H]1Nc1nc(-c2c[nH]c3ncc(F)cc23)ncc1F (mixture of isomers) | Ki | > 4 µM |
| O=c1[nH]c(=O)n(C[C@H]2C3CCC(CC3)[C@@H]2Nc2nc(-c3c[nH]c4ncc(F)cc34)ncc2F)o1 (mixture of isomers) | Ki | > 4 µM |
| OCC(O)[C@H]1C2CCC(CC2)[C@@H]1Nc1nc(-c2c[nH]c3ncc(F)cc23)ncc1F (mixture of isomers) | Ki | 1.5 µM |

Ask: Requested field: Ki. Item: Oc1cc([C@H]2C3CCC(CC3)[C@@H]2Nc2nc(-c3c[nH]c4ncc(F)cc34)ncc2F)[nH]n1 (mixture of isomers)
Reply: > 4 µM

Ask: Then what about the compound O=c1nc([C@H]2C3CCC(CC3)[C@@H]2Nc2nc(-c3c[nH]c4ncc(F)cc34)ncc2F)[nH]o1 (mixture of isomers) ?
Reply: > 4 µM

----------
target: Rho-associated protein kinase (Homo sapiens, UniProt O75116+Q13464); assay: Inhibition of ROCK (unknown origin); format: protein-complex assay
recorded-metric: Ki

Before answering, review these 3 worked examples.
| compound | assay-value |
| --- | --- |
| NS(=O)(=O)[C@H]1C2CCC(CC2)[C@@H]1Nc1nc(-c2c[nH]c3ncc(F)cc23)ncc1F (mixture of isomers) | 0.98 µM |
| Oc1cc([C@H]2C3CCC(CC3)[C@@H]2Nc2nc(-c3c[nH]c4ncc(F)cc34)ncc2F)no1 (mixture of isomers) | > 4 µM |
| O=P(O)(O)[C@H]1C2CCC(CC2)[C@@H]1Nc1nc(-c2c[nH]c3ncc(F)cc23)ncc1F (mixture of isomers) | > 4 µM |

Ask: Requested field: Ki. Item: Cc1noc([C@H]2C3CCC(CC3)[C@@H]2Nc2nc(-c3c[nH]c4ncc(F)cc34)ncc2F)n1 (mixture of isomers)
Reply: > 4 µM

Ask: Then what about the compound Oc1cc([C@H]2C3CCC(CC3)[C@@H]2Nc2nc(-c3c[nH]c4ncc(F)cc34)ncc2F)on1 (mixture of isomers) ?
Reply: > 4 µM
